Recorded measurements of clearance, one per entry
Experiment: Clearance in rat
Type: ADME, organism-based
Conditions: in vivo
Express it in mL/min/kg; write the number only.

NC[C@]1(CC(=O)O)C[C@H]2CCC[C@H]21	4.5

Dear colleague, I am looking for the recorded clearance of the following compound: `NC[C@]1(CC(=O)O)C[C@H]2CC[C@H]2C1` 4.3

----------
Listed here: items and their measured half-life.
Experiment: Elimination half life in rat
Assay type: ADME, organism-based
Conditions: in vivo
Numbers only; they are read as h.

NC[C@]1(CC(=O)O)C[C@H]2CC[C@H]2C1	2.4

// returns reported half-life for input `NC[C@]1(CC(=O)O)C[C@H]2CCC[C@H]21` 2.3

These data points were gathered from ChEMBL document CHEMBL1153228.
